Reference source: the RNAGym collection of RNA variant scans (doi:10.1073/pnas.2313332121)

Entries and their polymerase ribozyme fitness (log ratio) values follow.
B1: TPR t1 (parent)
chain: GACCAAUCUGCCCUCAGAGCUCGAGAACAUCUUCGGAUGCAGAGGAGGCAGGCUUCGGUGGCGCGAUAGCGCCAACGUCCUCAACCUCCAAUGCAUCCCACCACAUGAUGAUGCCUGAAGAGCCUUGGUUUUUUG

Variants of: B1
EXPERIMENTAL_DETAILS: polymerase ribozyme fitness, log enrichment relative to wild type (log ratio); higher = more active; in vitro selection for triplet polymerase activity
Number only, please.

polymerase ribozyme fitness (log ratio) measured on `GACCAAUCUGCCCUCAGAGCUCGAGAACAUCUUCGGAUGCAGAGGAGGCAGGCUUCGGUGGCGCGAUAGCGCCAACGACCUCAACCUCCAAUGCAUCCCACCACAUGAUGAUGCCUAAAGAGCCUUGCUUUUUUG` = -5.04

polymerase ribozyme fitness (log ratio) measured on `GACCAAUCAGCCCUCAGAUCUCGAGAACAUCUUCGGAUGCAGAGGUGGCAGGCUUGGGUGGCGCGAUAGCGCCAACGUCCUCAACCUCCAAUGCAUCCCACCACAUGAUGAUGCCUGAAGAGCCUUGGUUUUGUG` = -4.95

polymerase ribozyme fitness (log ratio) measured on `GACCAUUCUGCCCUAAGAGCUCGAGAACAUCUUCGGAUGCAGAGGAGGCAGGCUUCGGUGGCGCGAUAGCGCCAACGUCCUCAACCUCCAAUGCAUCCCACCACAUGAUGAUACCUGAAGAGCCUUGGUUUUUUG` = -4.98

polymerase ribozyme fitness (log ratio) measured on `GACCAAUCUGCCCUCAGAGCUCGAGAACAACUUCGGUUGCAGAGGAGGCAGGCUUCGGUGGCGCGAUAGCGCCAACGUCCUCAACCUCCAAUGCAUCCCACCACAUGAUGAUGCCUGAAGAGCCUUGGUUUUUUG` = -4.9

Okay, next one:
polymerase ribozyme fitness (log ratio) measured on `GAAGAAUCUACCCUCAGAGCUCGAGAACAUCUUCGGAUGCAGAGGAGGCAGGCUUCGGUGUCGCGAUAGCGCCCACGUCCUCAACCUCCAAUGCAUCCCACCACAUGAUGAUGCCUGAAGAGGCUUGGUUUUUUG` = -4.94
